Hey, just so you know, these numbers are from patent US20050096354A1.

melting point values for the compounds below.

Past entries and their recorded results:
>>> value_observed("Cc1nc(-c2c(C#N)nn(-c3c(Cl)cc(C(F)(F)F)cc3Cl)c2N)cs1")
"226 to 228 °C"
>>> value_observed("N#Cc1nn(-c2c(Cl)cc(C(F)(F)F)cc2Cl)c(N)c1-c1ccccc1C(F)(F)F")
"210 to 212 °C"
>>> value_observed("N#Cc1nn(-c2c(Cl)cc(C(F)(F)F)cc2Cl)c(N)c1-c1ccc(Br)cc1")
"242 to 244 °C"
>>> value_observed("N#Cc1nn(-c2c(Cl)cc(C(F)(F)F)cc2Cl)c(N)c1-c1cc(Cl)oc1Cl")
"193 to 194 °C"
>>> value_observed("Cc1ccccc1-c1c(C#N)nn(-c2c(Cl)cc(C(F)(F)F)cc2Cl)c1N")
"199 to 202 °C"

The recorded melting point for entry N#Cc1nn(-c2c(Cl)cc(C(F)(F)F)cc2Cl)c(N)c1-c1cccc([N+](=O)[O-])c1 equals 212 to 214 °C

Record summary for N#Cc1nn(-c2c(Cl)cc(C(F)(F)F)cc2Cl)c(N)c1-c1cccc(Cl)c1 : reported melting point = 161 to 162 °C

N#Cc1nn(-c2c(Cl)cc(C(F)(F)F)cc2Cl)c(N)c1-c1ccccc1 yielded melting point of 198 to 199 °C

The measured melting point associated with N#Cc1nn(-c2c(Cl)cc(C(F)(F)F)cc2Cl)c(N)c1-c1cccc(F)c1 reads 164 °C

Value of melting point reported for the compound N#Cc1nn(-c2c(Cl)cc(C(F)(F)F)cc2Cl)c(N)c1-c1onc(Br)c1Br is 279 °C

# melting point of N#Cc1nn(-c2c(Cl)cc(C(F)(F)F)cc2Cl)c(N)c1-c1cccc2ccccc12 = 208 °C

Field melting point (entry N#Cc1nn(-c2c(Cl)cc(C(F)(F)F)cc2Cl)c(N)c1-c1ccc(Cl)cc1 ) reads 235 to 237 °C

melting point recorded for this compound, N#Cc1nn(-c2c(Cl)cc(C(F)(F)F)cc2Cl)c(N)c1-c1ccccc1Cl , is 192 to 193 °C

###

measured_property: melting point (°C)
Enter your answer as a number in °C; do not include the unit.

Illustrative cases are given below, each with its answer.
>>> value_observed("COc1ccc(-c2c(C#N)nn(-c3c(Cl)cc(C(F)(F)F)cc3Cl)c2N)cc1")
222
>>> value_observed("COc1ccc(-c2c(C#N)nn(-c3c(Cl)cc(C(F)(F)F)cc3Cl)c2N)cc1OC")
250
>>> value_observed("N#Cc1nn(-c2c(Cl)cccc2Cl)c(N)c1-c1ccco1")
222.6
>>> value_observed("N#Cc1nn(-c2c(Cl)cc(C(F)(F)F)cc2Cl)c(N)c1-c1cc(Br)no1")
227

Next:
Item: N#Cc1nn(-c2c(Cl)cc(C(F)(F)F)cc2Cl)c(N)c1-c1ccccc1F | melting point: 197

###

Attribute: melting point

>>> value_observed("N#Cc1nn(-c2c(Cl)cc(C(F)(F)F)cc2Cl)c(N)c1-c1ccc2c(c1)OCO2")
"222 °C"
>>> value_observed("COc1ccccc1-c1c(C#N)nn(-c2c(Cl)cc(C(F)(F)F)cc2Cl)c1N")
"193 °C"
>>> value_observed("N#Cc1nn(-c2c(Cl)cc(C(F)(F)F)cc2Cl)c(N)c1-c1ccc(C(F)(F)F)o1")
"148 to 151 °C"
>>> value_observed("N#Cc1nn(-c2c(Cl)cc(C(F)(F)F)cc2Cl)c(N)c1-c1cc(Cl)cc(Cl)c1")
"228 to 230 °C"
>>> value_observed("N#Cc1nn(-c2c(Cl)cc(C(F)(F)F)cc2Cl)c(N)c1-c1cccnc1")
"265 to 267 °C"

Moving on to the next molecule.
The measured melting point associated with N#Cc1nn(-c2c(Cl)cc(C(F)(F)F)cc2Cl)c(N)c1-c1ccoc1 reads 180 to 181 °C
